Tested on: Human mGlu3 (Homo sapiens)
Sequence (Q14832 23-879): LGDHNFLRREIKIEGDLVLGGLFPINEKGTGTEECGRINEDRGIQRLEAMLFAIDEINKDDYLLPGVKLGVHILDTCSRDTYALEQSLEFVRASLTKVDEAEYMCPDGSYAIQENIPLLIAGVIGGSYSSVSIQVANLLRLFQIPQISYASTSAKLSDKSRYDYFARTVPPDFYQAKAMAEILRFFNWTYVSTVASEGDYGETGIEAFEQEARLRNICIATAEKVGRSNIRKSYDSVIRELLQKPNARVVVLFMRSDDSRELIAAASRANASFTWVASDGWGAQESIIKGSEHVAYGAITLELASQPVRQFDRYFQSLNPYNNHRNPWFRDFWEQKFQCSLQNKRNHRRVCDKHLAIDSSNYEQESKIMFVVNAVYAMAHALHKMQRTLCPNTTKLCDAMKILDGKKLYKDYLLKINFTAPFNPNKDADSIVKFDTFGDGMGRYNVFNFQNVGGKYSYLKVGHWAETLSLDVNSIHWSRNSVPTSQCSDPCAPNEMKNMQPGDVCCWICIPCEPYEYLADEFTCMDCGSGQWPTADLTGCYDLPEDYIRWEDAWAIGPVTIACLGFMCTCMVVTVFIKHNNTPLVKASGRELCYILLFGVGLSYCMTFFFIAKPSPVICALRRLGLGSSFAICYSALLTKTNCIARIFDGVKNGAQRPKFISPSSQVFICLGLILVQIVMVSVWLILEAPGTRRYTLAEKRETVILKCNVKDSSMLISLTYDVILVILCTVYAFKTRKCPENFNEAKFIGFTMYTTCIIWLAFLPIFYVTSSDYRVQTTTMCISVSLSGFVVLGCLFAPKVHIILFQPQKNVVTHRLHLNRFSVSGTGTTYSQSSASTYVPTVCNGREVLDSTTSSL
Measurement protocol: mGlu receptor in vitro assay, human mGlu3
pEC50: −log10 of the molar value.
Quick list: pEC50 per entry.
Assay endpoint: pEC50

>  <Query smiles>
CCCC(=O)c1ccc(OCCCCCOc2ccc(C(=O)O)c(F)c2)c(C)c1O

>  <Tested on>
Human mGlu3 (Homo sapiens)

>  <Assay endpoint>
pEC50

>  <Comparative sign>
=

>  <Endpoint result>
6.03

$$$$
>  <Query smiles>
COc1ccc(C(=O)O)cc1OCCCCCCCCCOc1ccc(C(=O)CC(C)(C)C)c(O)c1C

>  <Tested on>
Human mGlu3 (Homo sapiens)

>  <Assay endpoint>
pEC50

>  <Comparative sign>
=

>  <Endpoint result>
5.95

$$$$
>  <Query smiles>
COc1ccc(C(=O)O)cc1CCCCCOc1ccc(C(=O)CC(C)(C)C)c(O)c1C

>  <Tested on>
Human mGlu3 (Homo sapiens)

>  <Assay endpoint>
pEC50

>  <Comparative sign>
=

>  <Endpoint result>
6.12

$$$$
>  <Query smiles>
COc1ccc(C(=O)O)cc1OCCNCCOc1ccc(C(=O)CC(C)(C)C)c(O)c1C

>  <Tested on>
Human mGlu3 (Homo sapiens)

>  <Assay endpoint>
pEC50

>  <Comparative sign>
=

>  <Endpoint result>
5.79

$$$$
>  <Query smiles>
Cc1c(OCCOCCOc2ccc(C(=O)CC(C)(C)C)c(O)c2C)cccc1C(=O)O

>  <Tested on>
Human mGlu3 (Homo sapiens)

>  <Assay endpoint>
pEC50

>  <Comparative sign>
=

>  <Endpoint result>
6.49

$$$$
>  <Query smiles>
COc1ccc(C(=O)O)cc1OCCCCCCCCOc1ccc(C(=O)CC(C)(C)C)c(O)c1C

>  <Tested on>
Human mGlu3 (Homo sapiens)

>  <Assay endpoint>
pEC50

>  <Comparative sign>
<

>  <Endpoint result>
5.00

$$$$
>  <Query smiles>
COc1ccc(C(=O)O)cc1OCCN(CCOc1ccc(C(=O)CC(C)(C)C)c(O)c1C)S(=O)(=O)c1ccc(C)cc1

>  <Tested on>
Human mGlu3 (Homo sapiens)

>  <Assay endpoint>
pEC50

>  <Comparative sign>
<

>  <Endpoint result>
4.52

$$$$
>  <Query smiles>
COc1c(C(=O)O)cccc1-c1ccc(COc2ccc(C(=O)CC(C)(C)C)c(O)c2C)nn1

>  <Tested on>
Human mGlu3 (Homo sapiens)

>  <Assay endpoint>
pEC50

>  <Comparative sign>
=

>  <Endpoint result>
6.74

$$$$
>  <Query smiles>
CCCC(=O)c1ccc(OCCOCCOc2ccc(C(=O)O)cc2OC)c(C)c1O

>  <Tested on>
Human mGlu3 (Homo sapiens)

>  <Assay endpoint>
pEC50

>  <Comparative sign>
<

>  <Endpoint result>
5.00

$$$$
>  <Query smiles>
Cc1c(OCc2cccc(-c3cccc(C(=O)O)c3)c2)ccc(C(=O)c2ccc(F)cc2)c1O

>  <Tested on>
Human mGlu3 (Homo sapiens)

>  <Assay endpoint>
pEC50

>  <Comparative sign>
=

>  <Endpoint result>
5.78

$$$$
>  <Query smiles>
COc1ccc(C(=O)c2ccc(OCCCCOc3cc(C(=O)O)ccc3OC)c(C)c2O)cc1

>  <Tested on>
Human mGlu3 (Homo sapiens)

>  <Assay endpoint>
pEC50

>  <Comparative sign>
=

>  <Endpoint result>
6.25

$$$$
>  <Query smiles>
COc1c(C(=O)O)cccc1-c1cnc(COc2ccc(C(=O)CC(C)(C)C)c(O)c2C)nc1

>  <Tested on>
Human mGlu3 (Homo sapiens)

>  <Assay endpoint>
pEC50

>  <Comparative sign>
=

>  <Endpoint result>
7.07

$$$$
>  <Query smiles>
COc1ccc(C(=O)O)cc1-c1cnc(COc2ccc(C(=O)CC(C)(C)C)c(O)c2C)cn1

>  <Tested on>
Human mGlu3 (Homo sapiens)

>  <Assay endpoint>
pEC50

>  <Comparative sign>
=

>  <Endpoint result>
6.67

$$$$
>  <Query smiles>
COc1c(C(=O)O)cccc1-c1cnc(COc2ccc(C(=O)C3CC3)c(O)c2C)cn1

>  <Tested on>
Human mGlu3 (Homo sapiens)

>  <Assay endpoint>
pEC50

>  <Comparative sign>
=

>  <Endpoint result>
5.71

$$$$
>  <Query smiles>
CCCC(=O)c1ccc(OCCCCCOc2ccc(C(=O)O)cc2OC)c(C)c1O

>  <Tested on>
Human mGlu3 (Homo sapiens)

>  <Assay endpoint>
pEC50

>  <Comparative sign>
<

>  <Endpoint result>
4.52

$$$$
>  <Query smiles>
CCCC(=O)c1ccc(OCCOCCOc2cccc(C(=O)O)c2C)c(C)c1O

>  <Tested on>
Human mGlu3 (Homo sapiens)

>  <Assay endpoint>
pEC50

>  <Comparative sign>
<

>  <Endpoint result>
5.00

$$$$
>  <Query smiles>
[2H]/C(=C(/[2H])C([2H])([2H])Oc1ccc(C(=O)CCC)c(O)c1C)C([2H])([2H])Oc1cccc(C(=O)O)c1C

>  <Tested on>
Human mGlu3 (Homo sapiens)

>  <Assay endpoint>
pEC50

>  <Comparative sign>
=

>  <Endpoint result>
6.27

$$$$
>  <Query smiles>
CCCC(=O)c1ccc(OCCCCCOc2ccc(Cl)c(C(=O)O)c2)c(C)c1O

>  <Tested on>
Human mGlu3 (Homo sapiens)

>  <Assay endpoint>
pEC50

>  <Comparative sign>
<

>  <Endpoint result>
4.52

$$$$

* * *

Tested on: Rat mGlu2 (Rattus norvegicus, UniProt P31421)
Sequence (P31421 19-872): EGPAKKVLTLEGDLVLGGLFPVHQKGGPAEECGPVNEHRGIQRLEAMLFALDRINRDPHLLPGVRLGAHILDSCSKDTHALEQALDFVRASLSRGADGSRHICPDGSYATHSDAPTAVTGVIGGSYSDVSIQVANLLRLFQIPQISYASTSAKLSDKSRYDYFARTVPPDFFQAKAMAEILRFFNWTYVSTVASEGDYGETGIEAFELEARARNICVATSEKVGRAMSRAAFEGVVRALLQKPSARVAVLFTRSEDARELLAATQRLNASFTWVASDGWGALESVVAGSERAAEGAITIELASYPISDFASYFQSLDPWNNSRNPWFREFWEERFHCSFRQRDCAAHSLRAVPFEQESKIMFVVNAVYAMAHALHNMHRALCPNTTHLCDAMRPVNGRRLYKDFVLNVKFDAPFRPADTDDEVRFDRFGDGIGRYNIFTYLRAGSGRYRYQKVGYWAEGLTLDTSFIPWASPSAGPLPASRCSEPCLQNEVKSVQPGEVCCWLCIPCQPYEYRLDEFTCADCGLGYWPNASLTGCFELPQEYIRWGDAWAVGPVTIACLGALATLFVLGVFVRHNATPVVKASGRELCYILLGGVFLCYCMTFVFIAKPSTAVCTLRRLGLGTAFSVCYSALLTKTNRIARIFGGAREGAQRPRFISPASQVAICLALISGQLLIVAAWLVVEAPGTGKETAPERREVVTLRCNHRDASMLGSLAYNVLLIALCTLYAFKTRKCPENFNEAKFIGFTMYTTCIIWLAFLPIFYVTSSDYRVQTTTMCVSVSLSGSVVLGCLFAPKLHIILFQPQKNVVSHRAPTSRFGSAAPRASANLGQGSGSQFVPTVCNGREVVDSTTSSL
Measurement protocol: mGlu receptor in vitro assay, thallium flux through GIRK channels, rat mGlu2
Condition notes: PAM potency with EC20 glutamate
pEC50: −log10 of the molar value.
Quick list: pEC50 per entry.

>  <Molecule>
Cc1c(OCc2cccc(-c3cccc(C(=O)O)c3)c2)ccc(C(=O)c2ccccc2)c1O

>  <Comparative sign>
=

>  <pEC50>
6.11

$$$$
>  <Molecule>
COc1ccc(C(=O)O)cc1OCCCCOc1ccc(C(=O)c2ccc(F)cc2)c(O)c1C

>  <Comparative sign>
=

>  <pEC50>
5.94

$$$$
>  <Molecule>
COc1ccc(C(=O)O)cc1OCCCCOc1ccc(C(=O)Cc2ccccc2)c(O)c1C

>  <Comparative sign>
=

>  <pEC50>
6.66

$$$$
>  <Molecule>
CCCC(=O)c1ccc(OCC2(COc3cccc(C(=O)O)c3C)CC2)c(C)c1O

>  <Comparative sign>
=

>  <pEC50>
7.05

$$$$
>  <Molecule>
Cc1c(OCc2cnc(-c3ccc(C(=O)O)c(Cl)c3)cn2)ccc(C(=O)CC(C)(C)C)c1O

>  <Comparative sign>
=

>  <pEC50>
6.27

$$$$
>  <Molecule>
CCCC(=O)c1ccc(OC/C=C/COc2ccc(C(=O)O)cc2OC)c(C)c1O

>  <Comparative sign>
=

>  <pEC50>
8.40

$$$$
>  <Molecule>
Cc1c(OCCSCCOc2ccc(C(=O)CC(C)(C)C)c(O)c2C)cccc1C(=O)O

>  <Comparative sign>
=

>  <pEC50>
6.86

$$$$
>  <Molecule>
Cc1c(Oc2cccc(C(=O)O)c2)ccc(C(=O)CC(C)(C)C)c1O

>  <Comparative sign>
=

>  <pEC50>
5.86

$$$$
>  <Molecule>
CCCC(=O)c1ccc(OCCCCCOc2ccc(C(=O)O)c(Cl)c2)c(C)c1O

>  <Comparative sign>
=

>  <pEC50>
8.10

$$$$
>  <Molecule>
Cc1c(OCc2ccnc(-c3cccc(C(=O)O)c3)n2)ccc(C(=O)CC(C)(C)C)c1O

>  <Comparative sign>
=

>  <pEC50>
6.41

$$$$
>  <Molecule>
CCCC(=O)c1ccc(OCC[S+]([O-])CCOc2ccc(C(=O)O)c(Cl)c2)c(C)c1O (centres unmarked)

>  <Comparative sign>
=

>  <pEC50>
6.23

$$$$
>  <Molecule>
Cc1c(OCc2cnc(-c3cccc(C(=O)O)c3)cn2)ccc(C(=O)C2CC2)c1O

>  <Comparative sign>
=

>  <pEC50>
6.08

$$$$
>  <Molecule>
Cc1c(OCc2cnc(-c3cccc(-c4nsc(=O)[nH]4)c3)cn2)ccc(C(=O)CC(C)(C)C)c1O

>  <Comparative sign>
<

>  <pEC50>
5.00

$$$$
>  <Molecule>
Cc1c(OCc2cncc(-c3cccc(C(=O)O)c3)n2)ccc(C(=O)CC(C)(C)C)c1O

>  <Comparative sign>
=

>  <pEC50>
6.66

$$$$
>  <Molecule>
Cc1c(OCCCCCOc2ccc(C(=O)O)c(Cl)c2)ccc(C(=O)CC(C)C)c1O

>  <Comparative sign>
=

>  <pEC50>
7.41

$$$$
>  <Molecule>
COc1c(C(=O)O)cccc1-c1cccc(COc2ccc(C(=O)CC(C)(C)C)c(O)c2C)c1

>  <Comparative sign>
=

>  <pEC50>
7.03

$$$$
>  <Molecule>
CCCC(=O)c1ccc(OCCS(=O)(=O)CCOc2cccc(C(=O)O)c2C)c(C)c1O

>  <Comparative sign>
<

>  <pEC50>
5.00

$$$$
>  <Molecule>
COC(=O)N(CCOc1cc(C(=O)O)ccc1OC)CCOc1ccc(C(=O)CC(C)(C)C)c(O)c1C

>  <Comparative sign>
=

>  <pEC50>
6.75

$$$$
>  <Molecule>
Cc1c(OCc2cccc(-c3cccc(S(N)(=O)=O)c3)c2)ccc(C(=O)CC(C)(C)C)c1O

>  <Comparative sign>
=

>  <pEC50>
5.87

$$$$
>  <Molecule>
CCCC(=O)c1ccc(OCCCCCOc2ccc(C(=O)CCC)c(O)c2C)c(C)c1O

>  <Comparative sign>
<

>  <pEC50>
5.00

$$$$
>  <Molecule>
CCCC(=O)c1ccc(OCCOCCOc2cccc(C(=O)O)c2C)c(C)c1O

>  <Comparative sign>
=

>  <pEC50>
6.80

$$$$
>  <Molecule>
Cc1c(OCc2cnc(-c3cccc(C(=O)O)c3)cn2)ccc(C(=O)c2ccccc2)c1O

>  <Comparative sign>
=

>  <pEC50>
5.75

$$$$
>  <Molecule>
[2H]C([2H])(CCCC([2H])([2H])Oc1ccc(C(=O)CCC)c(O)c1C)Oc1ccc(C(=O)O)cc1OC

>  <Comparative sign>
=

>  <pEC50>
7.66

$$$$
